Origin of measurements: patent US11259522B2

What LC50 was measured for each of the following?
Test system: Aedes aegypti Liverpool strain (insecticide susceptible, LVP) L3 larvae
Assay: Mosquito larval dose response assay, LVP strain
Details: 24 h, read-out: Lethal Concentration (LC50) LVP Strain
One number for each entry, in µg/mL.

Answered cases to consult:
CC1(C)[C@H](C(=O)O[C@H](C#N)c2cccc(Oc3ccccc3)c2)[C@@H]1C=C(Br)Br [Deltamethrin, deltamethrin, reference compound] :: 0.0119
CCOC(=O)CC(SP(=S)(OC)OC)C(=O)OCC (stereo not shown) :: 0.11
CC(C)C(=O)C1C(=O)C(C)(C)C(=O)C(C)(C)C1=O :: 40.9

input: Request the reported LC50 associated with CC1(C)C(C=C(Cl)Cl)C1C(=O)OCc1cccc(Oc2ccccc2)c1 (stereo not shown)
output: 0.0219
